System: T-47D breast
Assay: NCI tumour cell line growth inhibition, 48 h
Below, each entry is listed alongside its reported TGI.
Response body: numeric value in µM, unit text excluded.

{"Molecular String": "Oc1c(CN2CCCC2)cc(COCc2ccc(Br)cc2)c2cccnc12", "Unit Info": "µM", "TGI": 3.08}

For this molecule ( Nc1c(-c2nc3ccccc3o2)sc(=S)n1-c1ccc(Cl)cc1 ), measured TGI is 33.1

----------
System: SF-539 CNS
Test: NCI tumour cell line growth inhibition, 48 h
Parameter: TGI (µM)
Response body: numeric value in µM, unit text excluded.

// worked examples, TGI included
{"Molecular String": "C/C(=C\\C1=C(Cl)C(=O)c2ccccc2C1=O)C(=O)O", "Parameter": "TGI", "Unit Info": "µM", "Value Measured": 31.9}
{"Molecular String": "O=C(Nc1cccc(Oc2nnc(Cl)c3ccccc23)c1)Nc1ccc(Cl)c(C(F)(F)F)c1", "Parameter": "TGI", "Unit Info": "µM", "Value Measured": 4.01}

Moving on to another compound below.
For this compound ( C/C(=N\N=C(\[Se])N1CCN(c2ccccn2)CC1)c1ccccn1 ), measured TGI is 12.2
